assay: Cytotoxicity against C57BL/6NCr mouse Neutrophil assessed as cell viability followed by photo-irradiation with 20 mW/cm^2 light by tryptan blue dye based hemacytometer; format: toxicity; settings: mouse neutrophils, read-out: Activity
assay-endpoint: viability

• CN(C)c1ccc2nc3ccc(N(C)C)cc3[s+]c2c1.[Cl-] [METHYLENE BLUE ANHYDROUS] = > 80%
